- ASSAY_TEXT: Particle size and distribution, Malvern Mastersizer 2000
- Assay type: physicochemical
- EXPERIMENTAL_CONDITIONS: Crystal Form I, Malvern Mastersizer 2000
ENDPOINT: Particle size d50 (μm)

>  <COMPOUND>
CN1C(=O)/C(=C2/C(=O)Nc3ccccc32)c2ccccc21 [NAT-1201, N-methylisoindigo]

>  <Particle size d50 / μm>
13.301

$$$$
>  <COMPOUND>
CN1C(=O)/C(=C2/C(=O)Nc3ccccc32)c2ccccc21 [NAT-0601, N-methylisoindigo]

>  <Particle size d50 / μm>
12.464

$$$$
>  <COMPOUND>
CN1C(=O)/C(=C2/C(=O)Nc3ccccc32)c2ccccc21 [NAT-0801, N-methylisoindigo]

>  <Particle size d50 / μm>
12.268

$$$$
>  <COMPOUND>
CN1C(=O)/C(=C2/C(=O)Nc3ccccc32)c2ccccc21 [NAT-1203, N-methylisoindigo]

>  <Particle size d50 / μm>
15.674

$$$$
>  <COMPOUND>
CN1C(=O)/C(=C2/C(=O)Nc3ccccc32)c2ccccc21 [NAT-1202, N-methylisoindigo]

>  <Particle size d50 / μm>
15.603

$$$$

----------
- ASSAY_TEXT: Particle size and distribution, Malvern Mastersizer 2000
- Assay type: physicochemical
- EXPERIMENTAL_CONDITIONS: Crystal Form I, Malvern Mastersizer 2000
ENDPOINT: Particle size d90 (μm)

>  <COMPOUND>
CN1C(=O)/C(=C2/C(=O)Nc3ccccc32)c2ccccc21 [NAT-1201, N-methylisoindigo]

>  <ENDPOINT>
Particle size d90

>  <VALUE_UNITS>
μm

>  <RESULT>
26.897

$$$$
>  <COMPOUND>
CN1C(=O)/C(=C2/C(=O)Nc3ccccc32)c2ccccc21 [NAT-1203, N-methylisoindigo]

>  <ENDPOINT>
Particle size d90

>  <VALUE_UNITS>
μm

>  <RESULT>
30.015

$$$$
>  <COMPOUND>
CN1C(=O)/C(=C2/C(=O)Nc3ccccc32)c2ccccc21 [NAT-0801, N-methylisoindigo]

>  <ENDPOINT>
Particle size d90

>  <VALUE_UNITS>
μm

>  <RESULT>
23.99

$$$$
>  <COMPOUND>
CN1C(=O)/C(=C2/C(=O)Nc3ccccc32)c2ccccc21 [NAT-0601, N-methylisoindigo]

>  <ENDPOINT>
Particle size d90

>  <VALUE_UNITS>
μm

>  <RESULT>
25.635

$$$$
>  <COMPOUND>
CN1C(=O)/C(=C2/C(=O)Nc3ccccc32)c2ccccc21 [NAT-1202, N-methylisoindigo]

>  <ENDPOINT>
Particle size d90

>  <VALUE_UNITS>
μm

>  <RESULT>
30.339

$$$$

----------
- ASSAY_TEXT: Particle size and distribution, Malvern Mastersizer 2000
- Assay type: physicochemical
- EXPERIMENTAL_CONDITIONS: calculated as (d90-d10)/d50
ENDPOINT: Particle Size Distribution Ratio

>  <COMPOUND>
CN1C(=O)/C(=C2/C(=O)Nc3ccccc32)c2ccccc21 [NAT-0601, N-methylisoindigo]

>  <Particle Size Distribution Ratio>
1.86

$$$$
>  <COMPOUND>
CN1C(=O)/C(=C2/C(=O)Nc3ccccc32)c2ccccc21 [NAT-1202, N-methylisoindigo]

>  <Particle Size Distribution Ratio>
1.62

$$$$
>  <COMPOUND>
CN1C(=O)/C(=C2/C(=O)Nc3ccccc32)c2ccccc21 [NAT-1201, N-methylisoindigo]

>  <Particle Size Distribution Ratio>
1.75

$$$$
>  <COMPOUND>
CN1C(=O)/C(=C2/C(=O)Nc3ccccc32)c2ccccc21 [NAT-0801, N-methylisoindigo]

>  <Particle Size Distribution Ratio>
1.69

$$$$
>  <COMPOUND>
CN1C(=O)/C(=C2/C(=O)Nc3ccccc32)c2ccccc21 [NAT-1203, N-methylisoindigo]

>  <Particle Size Distribution Ratio>
1.58

$$$$
